assay_protocol: Permeability in human Caco2 cells at 10 uM after 1 hr
Assay type: ADME, cell-based
condition_set: Caco-2, read-out: permeability
outcome_measure: Papp at 1 h, 10 µM (×10⁻⁶ cm/s)
Unit ×10⁻⁶ cm/s implied. Number only.

Fill in: Papp at 1 h, 10 µM of C[C@@H]1CN(CC(=O)N2CC(C)(C)c3ncc(Cc4ccc(F)cc4)cc32)[C@@H](CN2CCOC[C@H]2C)CN1 is ___
1.1

* * *

assay_protocol: in vivo
condition_set: cynomolgus monkey, plasma, iv, 1 mg/kg
outcome_measure: clearance

- mol: "C[C@@H]1CN(CC(=O)N2CC(C)(C)c3ncc(Cc4ccc(F)cc4)cc32)[C@@H](CN2CCOC[C@H]2C)CN1"
  obs_value: "1.02 L/h/kg"

Could you now consider this next compound?
Fill in: clearance of C[C@@H]1CN(CC(=O)N2CC(C)(C)c3nc(CO)c(Cc4ccc(F)cc4)cc32)[C@@H](CN2CCOC[C@H]2C)CN1 is ___
0.96 L/h/kg

Cited source for all entries: ChEMBL document CHEMBL4152349
